The values you see were collected from patent US20240239886A1.

Measured OD at dilution 19683000 values are reported for all entries that follow.
Target: T1, recombinant protein consisting of the extracellular domain of human TREM2 fused to the His tag (human, UniProt Q9NZC2 19-174)
T1 construct: also called His tagged hTREM2; His-TREM2
T1 sequence: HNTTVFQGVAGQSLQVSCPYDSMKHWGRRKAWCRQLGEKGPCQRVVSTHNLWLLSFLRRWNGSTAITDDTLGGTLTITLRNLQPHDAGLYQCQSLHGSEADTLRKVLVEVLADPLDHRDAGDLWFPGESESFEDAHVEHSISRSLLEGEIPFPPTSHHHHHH
Assay: direct ELISA, coated His-TREM2 0.5 ug/mL, Ab stock 1 mg/mL
Output spec: scalar in OD, unitless text.

For 60H4G2 (antibody, V domains shown, Biotin conjugated in sup ELISA, cell-based ELISA and flow cytometry) VH: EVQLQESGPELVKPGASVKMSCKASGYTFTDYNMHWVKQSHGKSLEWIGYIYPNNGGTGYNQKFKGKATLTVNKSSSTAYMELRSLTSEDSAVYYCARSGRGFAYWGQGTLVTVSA VL: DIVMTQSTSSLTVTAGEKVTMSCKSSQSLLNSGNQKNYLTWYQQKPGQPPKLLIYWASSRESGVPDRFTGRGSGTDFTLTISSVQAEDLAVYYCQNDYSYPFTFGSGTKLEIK the binder record lists OD at dilution 19683000 as 0.067

***
Record 54H2C1 (antibody, V domains shown, Biotin conjugated in sup ELISA, cell-based ELISA and flow cytometry) VH: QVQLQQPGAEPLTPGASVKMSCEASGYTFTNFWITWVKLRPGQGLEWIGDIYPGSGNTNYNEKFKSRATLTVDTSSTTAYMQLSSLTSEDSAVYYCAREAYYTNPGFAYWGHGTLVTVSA VL: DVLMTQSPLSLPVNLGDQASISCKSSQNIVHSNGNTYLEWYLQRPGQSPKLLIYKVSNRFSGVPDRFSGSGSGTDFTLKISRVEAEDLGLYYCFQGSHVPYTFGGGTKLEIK . Reported OD at dilution 19683000: 0.069
